These data points were gathered from PubChem BioAssay (NCI).

# Tested on: RPMI-8226 leukemia
# Experiment Notes: NCI-60 one-dose screen, 48 h (100 = growth as untreated, 0 = no growth, -100 = all killed)
# Measurement Setup: 10 µM unless noted
Compounds without any hit were thinned out: in the full panel of roughly 83,000, 20% have a hit.
Note to self: values exactly at 80% are T. So growth at or above 80% is T, below is F.

Query :: Textbook exercise: given the entry COc1ccc([C@H]2[C@H](O)C(=O)N2c2cc(OC)c(OC)c(OC)c2)cc1F , state whether its growth is greater than or equal to 80%.
Result :: F

Query :: Textbook exercise: given the entry CC(=O)N1C(=S)NC(=O)C1CC(C)C (centres undefined) , state whether its growth is greater than or equal to 80%.
Result :: T

Query :: Textbook exercise: given the entry Cc1cc(C)c2sc(=O)n(Cc3nnc(SCCC(=O)O)o3)c2n1 , state whether its growth is greater than or equal to 80%.
Result :: T

Query :: Textbook exercise: given the entry CCCCCc1ccc(S(=O)(=O)Nc2cc(-c3csc(NC(=O)CN4CCN(C)CC4)n3)ccc2OC)cc1 , state whether its growth is greater than or equal to 80%.
Result :: F

Query :: Textbook exercise: given the entry O=C(O)c1ccc(-n2cc(CNc3cc(F)c(F)c(F)c3)c(-c3cccc(F)c3)n2)cc1 , state whether its growth is greater than or equal to 80%.
Result :: T

Query :: Textbook exercise: given the entry CN1CCN(c2nc(-c3csc(-c4ccccc4)n3)cc3ccccc23)CC1 , state whether its growth is greater than or equal to 80%.
Result :: F

Query :: Textbook exercise: given the entry COc1cc2nc(Cl)nc(Nc3cccc(C4=Nc5c(N)nc(N)nc5NC(c5ccc(F)cc5)C4)c3)c2cc1OC (centres undefined) , state whether its growth is greater than or equal to 80%.
Result :: F

Query :: Textbook exercise: given the entry Cc1ccc(N2C(=O)/C(=C/C=C/c3ccco3)SC2=S)cc1 , state whether its growth is greater than or equal to 80%.
Result :: F

Query :: Textbook exercise: given the entry CC(=O)C1=C(C)NC(NN)=NC1c1cccc(Cl)c1 (centres undefined) , state whether its growth is greater than or equal to 80%.
Result :: T

Query :: Textbook exercise: given the entry COc1ccc(S(=O)(=O)NCCCNc2nccc(-c3cn(C(C)(C)C)nc3-c3ccc(Cl)c(OC)c3)n2)cc1 , state whether its growth is greater than or equal to 80%.
Result :: T

Query :: Textbook exercise: given the entry CCO/C=N/C1=C(C#N)C(c2ccc(F)cc2)c2sc3c(C)cccc3c2O1 (centres undefined) , state whether its growth is greater than or equal to 80%.
Result :: F

Query :: Textbook exercise: given the entry N#Cc1cccc(CN2CCc3ncn(Cc4ccc(Cl)cc4)c(=O)c3C2)c1 , state whether its growth is greater than or equal to 80%.
Result :: F

Query :: Textbook exercise: given the entry COc1cc2c(cc1OC)C(Sc1ccc(F)cc1)c1c(nc(N)c(C#N)c1N)O2 (centres undefined) , state whether its growth is greater than or equal to 80%.
Result :: F

Query :: Textbook exercise: given the entry O=C(NNc1nc2cc(F)ccc2n2c(CO)ccc12)c1cnccn1 , state whether its growth is greater than or equal to 80%.
Result :: F

Query :: Textbook exercise: given the entry O=C(CCn1c[n+](CC(=O)c2ccc(F)cc2)c2ccccc21)Nc1cccc2cccnc12 , state whether its growth is greater than or equal to 80%.
Result :: F

Query :: Textbook exercise: given the entry CC(C)(C)n1nnnc1C(Nc1cccc2c1OCO2)c1cc2cccc3ccc4cccc1c4c32 (centres undefined) , state whether its growth is greater than or equal to 80%.
Result :: F

Query :: Textbook exercise: given the entry C#CCn1cccc1CNc1ccc(OC)cc1 , state whether its growth is greater than or equal to 80%.
Result :: F

Query :: Textbook exercise: given the entry N#Cc1c(Nc2ccccc2)nn2c(-c3ccc([N+](=O)[O-])cc3)ccnc12 , state whether its growth is greater than or equal to 80%.
Result :: T

Query :: Textbook exercise: given the entry NC(N)=Nc1ccc(Oc2cccc(Nc3ccc(Cl)cc3)c2)cn1 , state whether its growth is greater than or equal to 80%.
Result :: F

Query :: Textbook exercise: given the entry COc1ccc(C2CC(c3cccc(Nc4nc(Cl)nc5cc(OC)c(OC)cc45)c3)=Nc3c(N)nc(N)nc3N2)cc1 (centres undefined) , state whether its growth is greater than or equal to 80%.
Result :: F

Query :: Textbook exercise: given the entry O=C(CCC(=O)N1CCOCC1)OCCCCCCSc1ccc([N+](=O)[O-])c2nonc12 , state whether its growth is greater than or equal to 80%.
Result :: F

Query :: Textbook exercise: given the entry CC1=NC2=NN3C(=NN2C(c2ccccc2)=C1)N=NC(c1ccc(Br)cc1)=C3c1ccc(Br)cc1 , state whether its growth is greater than or equal to 80%.
Result :: T

Query :: Textbook exercise: given the entry Cc1ccc(-n2cc(/C=N/NC(=O)c3ccncc3)c(-c3ccc(S(C)(=O)=O)cc3)n2)cc1 , state whether its growth is greater than or equal to 80%.
Result :: T

Query :: Textbook exercise: given the entry O=C1CCCC2=C1C(c1c[nH]c3ccc(Br)cc13)Cc1cc(Br)ccc1N2 (centres undefined) , state whether its growth is greater than or equal to 80%.
Result :: F

Query :: Textbook exercise: given the entry CC(=O)c1ccc(Nc2nc(SCC(C)C)nc(-c3ccccc3)c2C#N)cc1 , state whether its growth is greater than or equal to 80%.
Result :: T

Query :: Textbook exercise: given the entry N=c1c2cc(-c3ccccc3)oc2ncn1/N=C/c1ccc(Br)cc1 , state whether its growth is greater than or equal to 80%.
Result :: T

Query :: Textbook exercise: given the entry CCn1c(SCC(=O)Nc2cccc(C(=O)/C=C/c3ccc(Br)cc3)c2)nc2ccccc2c1=O , state whether its growth is greater than or equal to 80%.
Result :: F

Query :: Textbook exercise: given the entry COc1cc(/C=C2\C(=O)Nc3cc(Cl)ccc32)ccc1OCc1ccc(F)cc1 , state whether its growth is greater than or equal to 80%.
Result :: T

Query :: Textbook exercise: given the entry Cc1ccc(CSc2nc(-c3ccc(Cl)cc3)c(C#N)c(N3CCNCC3)n2)cc1 , state whether its growth is greater than or equal to 80%.
Result :: F

Query :: Textbook exercise: given the entry CNC(=O)c1c(NC(=O)c2cccc(C(F)(F)F)c2F)sc2c1CCC(=O)C2 , state whether its growth is greater than or equal to 80%.
Result :: F

Query :: Textbook exercise: given the entry CS(=O)(=O)Nc1cc(-c2ccc3ncc(C#N)c(NCc4ccccc4F)c3c2)cnc1Cl , state whether its growth is greater than or equal to 80%.
Result :: F

Query :: Textbook exercise: given the entry CC1(C)CC[C@]2(C(=O)N3CCOCC3)CC[C@]3(C)C(=CC[C@@H]4[C@@]5(C)C/C(=C/c6ccccn6)C(=O)C(C)(C)[C@@H]5CC[C@]43C)[C@@H]2C1 , state whether its growth is greater than or equal to 80%.
Result :: F

Query :: Textbook exercise: given the entry C=C=COc1cccc(/C(N)=N/C(N)=N/c2nc3ccccc3s2)c1 , state whether its growth is greater than or equal to 80%.
Result :: T

Query :: Textbook exercise: given the entry COc1ccc2c(c1)c(-c1cc(N)n3nc(-c4cn(C)c5ccc(OC)cc45)cc3n1)cn2C , state whether its growth is greater than or equal to 80%.
Result :: F

Query :: Textbook exercise: given the entry O=S(=O)(NCCCNc1nccc(-c2[nH]c(-c3ccccc3)nc2-c2ccc(Cl)c(O)c2)n1)c1cccc2ccccc12 , state whether its growth is greater than or equal to 80%.
Result :: F

Query :: Textbook exercise: given the entry CCO/C=N/C1=C(C#N)C(c2ccc(OC)cc2)c2sc3c(C)cccc3c2O1 (centres undefined) , state whether its growth is greater than or equal to 80%.
Result :: F

Query :: Textbook exercise: given the entry COc1cc(-c2nn(C(C)(C)C)cc2-c2ccnc(NCCCNS(=O)(=O)c3ccccc3)n2)ccc1Cl , state whether its growth is greater than or equal to 80%.
Result :: F

Query :: Textbook exercise: given the entry O=C(Nc1nonc1-c1ccccc1)c1ccc(C(F)(F)F)cc1 , state whether its growth is greater than or equal to 80%.
Result :: F
